Value source: patent US20240342167A1

Test system: PRRSV strains NADC30, VR-2332 and Lelystad
ASSAY METHOD TEXT: PRRSV infection assay in PAMs, qRT-PCR for PRRSV
Assay type: cell-based
SETTINGS: 15 μM, PAMs, qRT-PCR
METRIC: inhibitory effect against PRRSV infection (in words)

Returns the measured inhibitory effect against PRRSV infection (in words) for the input molecule. Input: Cc1ccc(S(=O)(=O)Nc2nc3ccccc3nc2Nc2cccc(S(=O)(=O)N3CCCC3)c2)cc1
strong

Returns the measured inhibitory effect against PRRSV infection (in words) for the input molecule. Input: Cc1cc(F)ccc1S(=O)(=O)Nc1nc2ccccc2nc1Nc1cccc(Cl)c1Cl
strong

Returns the measured inhibitory effect against PRRSV infection (in words) for the input molecule. Input: O=S(=O)(Nc1nc2ccccc2nc1Nc1cccc(S(=O)(=O)N2CCCC2)c1)c1ccccc1
mild

Returns the measured inhibitory effect against PRRSV infection (in words) for the input molecule. Input: COc1ccc(Nc2nc3ccccc3nc2NS(=O)(=O)c2ccc(F)cc2C)cc1Cl
mild

====

TARGET UNDER TEST: PPI between PRRSV GP4 and CD163-SRCR5 domain (Sus scrofa, UniProt Q2VL90)
Construct: SRCR5 domain of porcine CD163 receptor was amplified from cDNA of pig cells; expressed in transfected cells; host or cells: HEK293T
Sequence (Q2VL90 477-577): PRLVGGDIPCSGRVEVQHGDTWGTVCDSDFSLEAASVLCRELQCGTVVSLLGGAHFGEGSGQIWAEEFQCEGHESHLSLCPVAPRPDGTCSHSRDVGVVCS
ASSAY METHOD TEXT: BiFC assay GP4/SRCR5
Format: cell-based, porcine CD163; PRRSV VR2332
SETTINGS: 5 μM, HEK293T, 24 h after transfection, relative to NC (DMSO), n=3
Procedure: HEK293T cells were cultivated in 6-well plates in FP medium and transfected with 1 μg XpBiFC-VN155 (I152L)-SRCR5 and 1 μg pBiFC-VC155-GP2/GP4 using Fugene6. […] Fluorescence images were taken at 24 h after transfection and fluorescence intensity was measured by image J.
The threshold is 0.4. Values of Average GP4 (relative fluorescence intensity, SRCR5/GP4 BiFC) beneath it are tagged 1; values meeting or exceeding it are tagged 0.

Record excerpt, results attached:
Say whether its Average GP4 (relative fluorescence intensity, SRCR5/GP4 BiFC) is strictly beneath 0.4. Entry: O=S(=O)(Nc1nc2ccccc2nc1Nc1cccc(S(=O)(=O)N2CCCC2)c1)c1ccccc1
1

Say whether its Average GP4 (relative fluorescence intensity, SRCR5/GP4 BiFC) is strictly beneath 0.4. Entry: COc1ccc(Nc2nc3ccccc3nc2NS(=O)(=O)c2ccc(F)cc2C)cc1
0

Say whether its Average GP4 (relative fluorescence intensity, SRCR5/GP4 BiFC) is strictly beneath 0.4. Entry: COc1ccc(NS(=O)(=O)c2cccc(Nc3nc4ccccc4nc3NS(=O)(=O)c3ccc(F)cc3C)c2)cc1
0

Say whether its Average GP4 (relative fluorescence intensity, SRCR5/GP4 BiFC) is strictly beneath 0.4. Entry: Cc1ccc(S(=O)(=O)Nc2nc3ccccc3nc2Nc2cccc(S(=O)(=O)N3CCCC3)c2)cc1
0

Say whether its Average GP4 (relative fluorescence intensity, SRCR5/GP4 BiFC) is strictly beneath 0.4. Entry: Cc1cccc(S(=O)(=O)Nc2nc3ccccc3nc2Nc2cccc(F)c2)c1
0

***
Say whether its Average GP4 (relative fluorescence intensity, SRCR5/GP4 BiFC) is strictly beneath 0.4. Entry: Cc1cc(F)ccc1S(=O)(=O)Nc1nc2ccccc2nc1Nc1cccc(Cl)c1Cl
0

Say whether its Average GP4 (relative fluorescence intensity, SRCR5/GP4 BiFC) is strictly beneath 0.4. Entry: Cc1cc(F)ccc1S(=O)(=O)Nc1nc2ccccc2nc1Nc1ccccc1
0

Say whether its Average GP4 (relative fluorescence intensity, SRCR5/GP4 BiFC) is strictly beneath 0.4. Entry: O=S(=O)(Nc1nc2ccccc2nc1Nc1cccc(S(=O)(=O)N2CCCCC2)c1)c1ccccc1
1

Say whether its Average GP4 (relative fluorescence intensity, SRCR5/GP4 BiFC) is strictly beneath 0.4. Entry: Cc1ccc(Nc2nc3ccccc3nc2NS(=O)(=O)c2ccc(F)cc2C)cc1
0

Say whether its Average GP4 (relative fluorescence intensity, SRCR5/GP4 BiFC) is strictly beneath 0.4. Entry: Cc1cc(F)ccc1S(=O)(=O)Nc1nc2ccccc2nc1Nc1cccc(Cl)c1C
0

Say whether its Average GP4 (relative fluorescence intensity, SRCR5/GP4 BiFC) is strictly beneath 0.4. Entry: COc1ccc(Nc2nc3ccccc3nc2NS(=O)(=O)c2ccc(F)cc2C)cc1Cl
0

Say whether its Average GP4 (relative fluorescence intensity, SRCR5/GP4 BiFC) is strictly beneath 0.4. Entry: Cc1cccc(S(=O)(=O)Nc2nc3ccccc3nc2Nc2cccc(S(=O)(=O)N3CCCCC3)c2)c1
1

Say whether its Average GP4 (relative fluorescence intensity, SRCR5/GP4 BiFC) is strictly beneath 0.4. Entry: COc1ccccc1NS(=O)(=O)c1cccc(Nc2nc3ccccc3nc2NS(=O)(=O)c2ccc(F)cc2C)c1
1

Say whether its Average GP4 (relative fluorescence intensity, SRCR5/GP4 BiFC) is strictly beneath 0.4. Entry: O=S(=O)(Nc1nc2ccccc2nc1Nc1ccc(Cl)c(S(=O)(=O)N2CCOCC2)c1)c1ccccc1
0

Say whether its Average GP4 (relative fluorescence intensity, SRCR5/GP4 BiFC) is strictly beneath 0.4. Entry: Cc1cc(F)ccc1S(=O)(=O)Nc1nc2ccccc2nc1Nc1cccc(Cl)c1
0

Say whether its Average GP4 (relative fluorescence intensity, SRCR5/GP4 BiFC) is strictly beneath 0.4. Entry: Cc1ccccc1S(=O)(=O)Nc1nc2ccccc2nc1Nc1ccc(S(=O)(=O)N2CCOCC2)cc1 [D2]
1

Say whether its Average GP4 (relative fluorescence intensity, SRCR5/GP4 BiFC) is strictly beneath 0.4. Entry: Cc1ccccc1Nc1nc2ccccc2nc1NS(=O)(=O)c1ccc(F)cc1C
0
